Substrate: NP of A/Brisbane/59/2007(H1N1/H1B) (influenza A virus A/Brisbane/59/2007 (H1N1))
PROCEDURE DETAILS: sandwich ELISA, capture IgG; NP of lysed virus titrated; HRP-NP17 detection
Listed binders paired with reported pEC50
Scale: pEC50 equals -log10([C]), with [C] in mol/L.

[[record]]
binder = "NP17 (antibody, V domains shown) VH: EVQLVESGGGLVQPGGSLRLSCAASGFTISGGSIHWVRQAPGKGLEWVASIWPFGGSTFYADSVKGRFTISADTSKNTAYLQMNSLRAEDTAVYYCARFGHGHNVIMDYWGQGTLVTVSS VL: DIQMTQSPSSLSASVGDRVTITCRASQDVGYSVAWYQQKPGKAPKLLISSPGGLYSGVPSRFSGSGSGTDFTLTISSLQPEDFATYYCQQYYDYPVTFGQGTKVEIKR"
experimental_result = 8.65

[[record]]
binder = "NP19 (antibody, V domains shown) VH: EVQLVESGGGLVQPGGSLRLSCAASGFTISSWGIHWVRQAPGKGLEWVAGIGPFWGYTSYADSVKGRFTISADTSKNTAYLQMNSLRAEDTAVYYCARFGVDNYGYMDYWGQGTLVTVSS VL: DIQMTQSPSSLSASVGDRVTITCRASQDVSGWVAWYQQKPGKAPKLLISWSTGLYSGVPSRFSGSGSGTDFTLTISSLQPEDFATYYCQQYFNFPVTFGQGTKVEIKR"
experimental_result = 9.09


Continue with the binder presented below.
Fill in the blank: the reported pEC50 of NP15 (antibody, V domains shown) VH: EVQLVESGGGLVQPGGSLRLSCAASGFTISNWYIHWVRQAPGKGLEWVAGIGPYGGSTYYADSVKGRFTISADTSKNTAYLQMNSLRAEDTAVYYCARFHWDHLHGMDYWGQGTLVTVSS VL: DIQMTQSPSSLSASVGDRVTITCRASQDVDNNVAWYQQKPGKAPKLLISYSTGLYSGVPSRFSGSGSGTDFTLTISSLQPEDFATYYCQQYWNYPITFGQGTKVEIKR is ____.
9.03
